Molecular target: FGF2 (UniProt P09038)
Assay: SPR; BIAcore X-100; FGF8b (20 μg/ml in 10 mM sodium acetate, pH 6.0) or other FGFs (10 mM sodium acetate at optimal pH) immobilised on a CM5 sensor chip by EDC/NHS; peptide injected (ARPCA 8 μM to 2000 μM), 4 min at 30 μl/min, 10 min dissociation, in HBS; equilibrium values fitted with the Langmuir equation for monovalent binding
RECORDED_METRIC: Kd (mM)
# value in mM; strip the unit string

What Kd value was documented for this binder, Ac-ARPCA-NH2 [Ac-ARPCA-NH2, acetylated pentapeptide corresponding to PTX3(100-104)] ?
1.7
